Let's look at some compounds and their measured GI50.
Tested on: SK-MEL-2
Assay: Antiproliferative activity against human SK-MEL-2 cells assessed as growth inhibition after 48 hrs by sulforhodamine B assay
Type: functional
Conditions: SK-MEL-2, 48 h
readout_kind: GI50 (nM)

N=C(N)c1ccc(-c2ccc(-c3ccc(F)cc3)s2)s1: 1810
COc1cc(OC)cc(-c2ccc(-c3ccc(C(=N)N)o3)o2)c1: 2440
COc1ccc2cc(-c3ccc(-c4ccc(C(=N)N)s4)s3)ccc2c1: 2660
N=C(N)c1ccc(-c2ccc(-c3ccc4ccccc4c3)s2)s1: 2520
N=C(N)c1ccc(-c2ccc(-c3cncc4ccccc34)s2)s1: 2000
N=C(N)c1ccc(-c2ccc(-c3cc(Cl)cc(Cl)c3)s2)s1: 2240
COc1ccc(-c2ccc(-c3ccc(C(=N)N)o3)o2)cc1: 5710
N=C(N)c1ccc(-c2ccc(-c3cc(Cl)cc(Cl)c3)o2)o1: 2020
N=C(N)c1ccc(-c2ccc(-c3ccc(Cl)cc3)s2)s1: 2380
N=C(N)c1ccc(-c2ccc(-c3ccc(Cl)cc3)o2)o1: 2080
N=C(N)c1ccc(-c2ccc(-c3ccccc3)o2)o1: 2250
N=C(N)c1ccc(-c2ccc(-c3ccc(F)cc3)o2)o1: 1760

----------
Assay: Antioxidant activity assessed as DPPH radical scavenging activity incubated in dark for 30 mins by spectrophotometric method relative to ascorbic acid
Assay type: functional
Would you mind labelling by fold change (FC)? At or over 0.6 is YES, under is NO.

N=C(N)c1ccc(-c2ccc(-c3ccccc3)o2)o1: NO
N=C(N)c1ccc(-c2ccc(-c3ccc(Cl)cc3)s2)s1: YES
N=C(N)c1ccc(-c2ccc(-c3cc(Cl)cc(Cl)c3)o2)o1: NO
COc1cccc(-c2ccc(-c3ccc(C(=N)N)s3)s2)c1: NO
N=C(N)c1ccc(-c2ccc(-c3ccc(F)cc3)o2)o1: NO
COc1cc(-c2ccc(-c3ccc(C(=N)N)s3)s2)cc(OC)c1OC: YES
COc1ccc2cc(-c3ccc(-c4ccc(C(=N)N)s4)s3)ccc2c1: NO
O=C1O[C@H]([C@@H](O)CO)C(O)=C1O [ASCORBIC ACID]: YES

----------
Let's look at some compounds and their measured GI50.
Tested on: HCT-15
Assay: Antiproliferative activity against human HCT15 cells assessed as growth inhibition after 48 hrs by sulforhodamine B assay
Format: functional
Details: HCT-15, 48 h
readout_kind: GI50 (nM)

N=C(N)c1ccc(-c2ccc(-c3ccc(F)cc3)o2)o1: 630
N=C(N)c1ccc(-c2ccc(-c3ccc(Cl)cc3)o2)o1: 1520
N=C(N)c1ccc(-c2ccc(-c3cc(Cl)cc(Cl)c3)o2)o1: 1640
N=C(N)c1ccc(-c2ccc(-c3ccc4ccccc4c3)s2)s1: 1690
COc1ccc(-c2ccc(-c3ccc(C(=N)N)o3)o2)cc1: 670
N=C(N)c1ccc(-c2ccc(-c3cncc4ccccc34)s2)s1: 980
N=C(N)c1ccc(-c2ccc(-c3ccc(Cl)cc3)s2)s1: 1200
COc1cc(-c2ccc(-c3ccc(C(=N)N)s3)s2)cc(OC)c1OC: 1910
COc1ccc2cc(-c3ccc(-c4ccc(C(=N)N)s4)s3)ccc2c1: 1890
N=C(N)c1ccc(-c2ccc(-c3ccccc3)o2)o1: 1160
N=C(N)c1ccc(-c2ccc(-c3cc(Cl)cc(Cl)c3)s2)s1: 1620
COc1cc(OC)cc(-c2ccc(-c3ccc(C(=N)N)o3)o2)c1: 3180
N=C(N)c1ccc(-c2ccc(-c3ccc(F)cc3)s2)s1: 1340

Numbers sourced from ChEMBL document CHEMBL4346657.
